Tested on: L1210 leukemia ip in BDF1 mice, survival T/C
protocol: NCI In Vivo Anticancer Drug Screen. Data for tumor model L1210 Leukemia (intraperitoneal) in B6D2F1 (BDF1) mice
conditionNotes: endpoint: mean survival time; dose: 200.0 mg/kg/injection; schedule: Q04DX002 (ip); vehicle: Klucel (hydroxypropylcellulose) (HPC); higher = longer survival
Toxic doses and inconclusive results are not listed.
resultType: T/C

Record summary for `Cc1c(Cl)cccc1NC(=O)Nc1ccccc1F` : reported T/C = 97 % of control

Please supply T/C for each of the following items, keeping them in order.
1. CCOc1ccc(P2(=S)SP(=S)(c3ccc(OCC)cc3)S2)cc1 (stereo unspecified)
2. O=C1CCN(CCN2CCC(=O)N(Cc3ccccc3)C2=S)C(=S)N1Cc1ccccc1
3. Cc1cc(C)c(C#N)c(=O)[nH]1

88 % of control
107 % of control
92 % of control

Look up T/C for the entries below, preserving their order.
1. CC(=C1C2CCC1C(C(=O)N(C)C)C2C(=O)N(C)C)C(Cl)(Cl)Cl (stereo unspecified)
2. O=C(c1ccccc1)c1cc2ccccc2n1S(=O)(=O)c1ccccc1
3. CN(Cc1cccc(Cl)c1)C(=O)Nc1ccccc1Cl

110 % of control
98 % of control
104 % of control
